Test system: primary rat microglia
Conditions: rat
measured attribute: LPS % cell toxicity (%)
Field format: number, assumed %, no unit text.

{"columns": ["compound", "assay target", "LPS % cell toxicity (%)"],
 "data": [
  ["CCOC(=O)c1ncn2c1CN(C)C(=O)c1cc(F)ccc1-2", "primary rat microglia", 1]
]}

Problem: What value of LPS % cell toxicity has been reported for the following compound? `NCCS`
Result: 0

Problem: Follow-up entry: `C[C@]12CC[C@@H]3c4ccc(OC(=O)N(CCCl)CCCl)cc4CC[C@H]3[C@@H]1CC[C@@H]2O`
Result: 1

Problem: Next: O=C(O)CCC(=O)OC[C@@H](NC(=O)C(Cl)Cl)[C@H](O)c1ccc([N+](=O)[O-])cc1 [CHLOR[…]]
Result: 1

Problem: Param item: `CC12CCC(CC1)C(C)(C)O2`
Result: 0

###

System: LPS-induced microglia activation
Assay: Image-based assay of LPS-induced microglia activation (HTS and dose response)
Type: cell-based, rat
Details: Rattus norvegicus, Microglia, primary microglia HTS, LPS stimulation, compounds at 10 μM; read-out: LPS % inhibition
Where a name gives a salt, the structure may show the parent alone.
measured attribute: inhibition at 10 µM (%)
Just the number please, in %, no unit attached.

Examples with answers:
{"columns": ["compound", "recorded result"],
 "data": [
  ["C=C(NC(=O)C(=C)NC(=O)c1csc(C2=N[C@@H]3c4csc(n4)[C@H]4NC(=O)c5csc(n5)[C@H]([C@](C)(O)[C@@H](C)O)NC(=O)[C@H]5CSC(=N5)/C(=C/C)NC(=O)[C@H]([C@@H](C)O)NC(=O)c5csc(n5)[C@]3(CC2)NC(=O)[C@H](C)NC(=O)C(=C)NC(=O)[C@H](C)NC(=O)[C@H]([C@@H](C)CC)N[C@@H]2C=Cc3c([C@H](C)O)cc(nc3[C@H]2O)C(=O)O[C@@H]4C)n1)C(N)=O [Thiostrepton]", 65],
  ["CCC(C)(C)c1ccc(CC(C)CN2C[C@@H](C)O[C@@H](C)C2)cc1 (stereo partly shown) [Amorolfine]", 22]
]}

Problem: Tell me the measured inhibition at 10 µM of O=C1c2c(O)ccc(O)c2C(=O)c2c(NCCNCCO)ccc(NCCNCCO)c21 [Mitoxantrone] , please.
Result: 122

Problem: Note, next up: CN[C@@H]1[C@H](O[C@H]2[C@H](O[C@H]3[C@H](O)[C@@H](O)[C@H](NC(=N)N)[C@@H](O)[C@@H]3NC(=N)N)O[C@@H](C)[C@]2(O)CO)O[C@@H](CO)[C@H](O)[C@H]1O [Dihydrostreptomycin Sulfate]
Result: 12

###

Tested on: primary rat microglia
Test: Cell toxicity (dead cells, size <150 μm2) in coated fibrin (cFib) assay;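 for Fibrin % cell toxicity: share of dead cells sized under 150 µm2 at 10 µM in fibrin-stimulated microglia HTS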
Conditions: primary microglia HTS, fibrin stimulation; decreased size (<150 μm^2) as marker of toxicity
Entries and their measured Fibrin % cell toxicity follow.
# number only, unit % dropped from output

Answered examples (3):
{"columns": ["molecule", "measured attribute", "recorded result"],
 "data": [
  ["COc1ccc2cc1Oc1ccc(cc1)C[C@H]1c3c(cc4c(c3Oc3cc5c(cc3OC)CCN(C)[C@@H]5C2)OCO4)CCN1C", "Fibrin % cell toxicity", 85],
  ["O=C(O)CCc1nc(-c2ccccc2)c(-c2ccccc2)o1", "Fibrin % cell toxicity", 1],
  ["Cc1cccc(CN2CCN(C(c3ccccc3)c3ccc(Cl)cc3)CC2)c1 (centres unmarked)", "Fibrin % cell toxicity", 0]
]}

Problem: Look at this molecule and give its reported Fibrin % cell toxicity. `CN(C)CC/C=C1/c2ccccc2COc2ccc(CC(=O)O)cc21`
Result: 1

Problem: Then what about the molecule O=C(Nc1ccc([N+](=O)[O-])cc1Cl)c1cc(Cl)ccc1O [Nicolsamide, Niclosamide] ?
Result: 1

Problem: Then this molecule: `CCN(CC)CCNC(=O)c1ccc(NC(C)=O)cc1.Cl`
Result: 0

Problem: What about `Cc1ccnc2c1NC(=O)c1cccnc1N2C1CC1` ?
Result: 0

Problem: Please do the same for O=C(OOC(=O)c1ccccc1)c1ccccc1 [Benzoyl peroxide, reference compound] as well.
Result: 1

###

Test: in vitro
Settings: rat, Cell Toxicity IC50 (uM) [cFib assay], Table 3
measured attribute: IC50

{"columns": ["compound", "measured attribute", "recorded result"],
 "data": [
  ["CC(=O)OCC(=O)[C@@]1(O)CC[C@H]2[C@@H]3CCC4=CC(=O)C=C[C@]4(C)[C@@]3(Cl)[C@@H](Cl)C[C@@]21C [Dichlorisone acetate, reference compound]", "IC50", "> 20 µM"],
  ["CCCCC(=O)O[C@]1(C(=O)CO)CC[C@H]2[C@@H]3CCC4=CC(=O)CC[C@]4(C)[C@H]3[C@@H](O)C[C@@]21C [Hydrocortisone valerate, reference compound]", "IC50", "> 20 µM"],
  ["CC(C)c1nc(N(C)S(C)(=O)=O)nc(-c2ccc(F)cc2)c1/C=C/[C@@H](O)C[C@@H](O)CC(=O)O [Rosuvastatin, reference compound]", "IC50", "20 µM"]
]}

Problem: So what does the record say about IC50 for O=C(NC(Cc1cc(=O)[nH]c2ccccc12)C(=O)O)c1ccc(Cl)cc1 (centres unmarked) [Rebamipide, reference compound] ?
Result: > 20 µM

Problem: Then this compound: C=C1C[C@H]2[C@@H]3C=C(C)C4=CC(=O)CC[C@]4(C)[C@H]3CC[C@]2(C)[C@@]1(OC(C)=O)C(C)=O [Melengestrol acetate, reference compound]
Result: > 20 µM

###

Entries and their Fibrin % cell toxicity
System: primary rat microglia
Assay: Cell toxicity (dead cells, size <150 μm2) in coated fibrin (cFib) assay;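 for Fibrin % cell toxicity: share of dead cells sized under 150 µm2 at 10 µM in fibrin-stimulated microglia HTS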
Conditions: primary microglia HTS, fibrin stimulation, toxicity = cell size <150 μm2
Structures can show the parent of a compound that is named as a salt.

Example compounds with recorded Fibrin % cell toxicity:
{"columns": ["compound", "assay target", "measured attribute", "recorded result"],
 "data": [
  ["N=C1NC(=O)N2CC12 (stereo not drawn) [Imexon]", "primary rat microglia", "Fibrin % cell toxicity", "1%"],
  ["CC(=O)N(CC(O)CN(C(C)=O)c1c(I)c(C(=O)NCC(O)CO)c(I)c(C(=O)NCC(O)CO)c1I)c1c(I)c(C(=O)NCC(O)CO)c(I)c(C(=O)NCC(O)CO)c1I (stereo not drawn)", "primary rat microglia", "Fibrin % cell toxicity", "0%"],
  ["CNC(=O)c1c(I)c(NC(C)=O)c(I)c(C(=O)O)c1I", "primary rat microglia", "Fibrin % cell toxicity", "1%"],
  ["CC1CCc2cc(F)cc3c(=O)c(C(=O)O)cn1c23 (stereo not drawn)", "primary rat microglia", "Fibrin % cell toxicity", "0%"],
  ["CC1Cc2ccccc2N1NC(=O)c1ccc(Cl)c(S(N)(=O)=O)c1 (stereo not drawn) [Indapamide]", "primary rat microglia", "Fibrin % cell toxicity", "0%"],
  ["CC(C)(C)NC[C@H](O)COc1cccc2c1CCCC2=O [Levobunolol Hydrochloride]", "primary rat microglia", "Fibrin % cell toxicity", "0%"],
  ["CC(C)CC(N)=O [Isovaleramide]", "primary rat microglia", "Fibrin % cell toxicity", "1%"],
  ["C[C@@H]1CC(=O)NN=C1c1ccc(NN=C(C#N)C#N)cc1", "primary rat microglia", "Fibrin % cell toxicity", "1%"],
  ["CC1(C)OC(=O)C(OCC2CC2)=C1c1ccc(S(C)(=O)=O)cc1", "primary rat microglia", "Fibrin % cell toxicity", "1%"],
  ["CC(C)(C)NC[C@H](O)COc1cccc2c1CCCC2=O [Levobunolol]", "primary rat microglia", "Fibrin % cell toxicity", "1%"]
]}

Problem: Look at this compound and give its reported Fibrin % cell toxicity. CC(N)CCCC(C)(C)O (stereo not drawn) [Heptaminol Hydrochloride]
Result: 1%

Problem: Another compound to check: `C[N+](C)(C)C[C@H](O)CC(=O)[O-]`
Result: 1%

Problem: Now this one: `Cc1c(Nc2ncccc2C(=O)O)cccc1C(F)(F)F`
Result: 1%

Problem: Follow-up entry: CC(C(=O)O)c1ccc(N2Cc3ccccc3C2=O)cc1 (stereo not drawn)
Result: 1%

###

Test system: primary rat microglia
Test: Cell toxicity (dead cells, size <150 μm2) in coated fibrin (cFib) assay;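 for Fibrin % cell toxicity: share of dead cells sized under 150 µm2 at 10 µM in fibrin-stimulated microglia HTS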
Conditions: primary microglia HTS, fibrin assay, dead cells (size <150 μm2), compounds at 10 μM
Measured Fibrin % cell toxicity values are reported for all entries that follow.
Answer format: numeric, % implied, no suffix.

// solved cases for Fibrin % cell toxicity follow
{"columns": ["compound", "Fibrin % cell toxicity / %"],
 "data": [
  ["C[C@@H](O)CN(CCN(C[C@@H](C)O)C[C@@H](C)O)C[C@@H](C)O", 1],
  ["C[N+](C)(C)CCCCCCCCCC[N+](C)(C)C", 0],
  ["CC(O)(P(=O)(O)O)P(=O)(O)O", 1],
  ["CN1CC(=O)NC1=N", 1],
  ["N[C@H](Cc1ccccc1)C(=O)O", 1]
]}

// switching to the query compound
Problem: What value of Fibrin % cell toxicity has been recorded for this entry: CCOc1ccc2nc3cc(N)ccc3c(N)c2c1 [Ethacridine Lactate]
Result: 1
